- target.under.test: Adenosine receptor A1 (Rattus norvegicus, UniProt P25099)
- Sequence (P25099 whole entry): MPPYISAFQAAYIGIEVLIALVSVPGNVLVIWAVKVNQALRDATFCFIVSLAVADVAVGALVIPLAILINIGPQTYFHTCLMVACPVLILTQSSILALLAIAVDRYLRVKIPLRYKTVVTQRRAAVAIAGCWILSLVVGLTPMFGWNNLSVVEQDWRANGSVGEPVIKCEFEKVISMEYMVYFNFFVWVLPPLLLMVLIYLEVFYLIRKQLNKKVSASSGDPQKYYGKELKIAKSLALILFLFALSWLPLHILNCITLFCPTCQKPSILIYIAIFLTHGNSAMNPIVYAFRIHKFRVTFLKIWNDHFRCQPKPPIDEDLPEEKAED
- test.name: Inhibition of [3H]CHA binding to Adenosine A1 receptor in whole rat brain membranes
// NB: equality with 7 µM counts as not satisfied; only Ki strictly below is satisfied

As a guide, the following entries are already answered.
chemical.string | target.under.test | assigned.category
CCCOC1=Nc2c(cnn2-c2ccccc2)C2=N[C@H](C)[C@@H](c3ccccc3)N12 | Adenosine receptor A1 (Rattus norvegicus, UniProt P25099) | not satisfied
CCCOc1nc(N[C@@H](CO)Cc2ccccc2)c2ncn(-c3ccccc3)c2n1 | Adenosine receptor A1 (Rattus norvegicus, UniProt P25099) | satisfied
CCCOC1=Nc2c(ncn2-c2ccccc2)C2=N[C@H](Cc3ccccc3)CN12 | Adenosine receptor A1 (Rattus norvegicus, UniProt P25099) | satisfied
CCCOC1=Nc2c(cnn2-c2ccccc2)C2=N[C@H](Cc3ccccc3)CN12 | Adenosine receptor A1 (Rattus norvegicus, UniProt P25099) | satisfied

Enquiry: Strictly below 7 µM: is that where Ki of CCCOC1=Nc2c(cnn2-c2ccccc2)C2=N[C@@H](Cc3ccccc3)CN12 sits?
Return: not satisfied
